Cited source for all entries: paper PMC2756588

- TARGET SYSTEM: T1, Pex13, P80667
- T1 sequence (P80667 295-386, looked up): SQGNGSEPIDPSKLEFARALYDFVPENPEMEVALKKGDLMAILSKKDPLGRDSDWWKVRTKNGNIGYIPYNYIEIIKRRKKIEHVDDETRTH
- ASSAY: SPOT array
- SETUP CONDITIONS: median of control spots 1341
Give measured SPOT intensity for each item. Keep answers brief.
Kindly provide the number alone.

The binder listed as "VQPTAAPATPPRHIS" has a reported SPOT intensity of 0

The measured SPOT intensity associated with "KDKKTKPTPPPKPSH" reads 0

Lab book: SPOT intensity of "TSIEIPKRSPLRFTS" noted as 19

For this binder ( "NPTKSPPPPPSPSTM" ), measured SPOT intensity is 43

Documented SPOT intensity of "MKRSRPSRSIPYTTP" : 10

// sample "LKVTPGRRAPTISKI" , its SPOT intensity was 3

# binder "GATNNAPTLPKRKNP" ; its SPOT intensity = 27

Note to self: SPOT intensity recorded for "RKNRAPPQRPRFNRE" was 14

// SPOT intensity value for "NRPAIRIPSLKKPAL" : 5

Form: binder = "MAMRPIPPLPTESEY" ; SPOT intensity = 235

The binder identified as "VYTRTAFQIPGDDKI" registered its SPOT intensity at 0

The reported SPOT intensity of the binder "QPPLPSSAPPIPTSH" was 0

SPOT intensity for "NQARKPFLLPATELS" is 0

Note to self: SPOT intensity recorded for "VRVKKRPLIRPLNSS" was 4

// field: SPOT intensity; key: "YVRRRPRVRLEPLLS" ; value = 2
